ASSAY_INFO: Tmax in humanized mouse at 200 mg/kg, sc measured on day 1 post dose by LC-MS/MS analysis
Format: ADME, organism-based
CONDITION_SUMMARY: in vivo
QUANTITY: Tmax

{"columns": ["COMPOUND_STRUCTURE", "ASSAY_VALUE"],
 "data": [
  ["Cc1cc(NC(=O)c2cccc(S(=O)(=O)N[C@H]3CCOC3)c2)ccc1F", "48 min"]
]}

###

ASSAY_INFO: Unbound fraction in human plasma
Type: ADME, cell-free

{"columns": ["COMPOUND_STRUCTURE", "fraction unbound"],
 "data": [
  ["Cc1cc(NC(=O)c2cccc(S(=O)(=O)N[C@H]3CCOC3)c2)ccc1F", 0.081]
]}

###

Test system: MDR1 (P-gp)
ASSAY_INFO: Apparent permeability in pig LLC-PK1 cells expressing human MDR1 from apical to basolateral side in absence of P-gp inhibitor GF-120918
Assay type: ADME, cell-based, Sus scrofa

{"columns": ["COMPOUND_STRUCTURE", "SYSTEM_NAME", "Papp A→B"],
 "data": [
  ["Cc1cc(NC(=O)c2cccc(S(=O)(=O)N[C@H]3CCOC3)c2)ccc1F", "MDR1 (P-gp)", "7.3 ×10⁻⁶ cm/s"]
]}

###

ASSAY_INFO: Half life in C57BL/6 mouse at 2.5 mg/kg, iv by LC-MS/MS analysis
Assay type: ADME, organism-based
CONDITION_SUMMARY: in vivo

{"columns": ["COMPOUND_STRUCTURE", "half-life (min)"],
 "data": [
  ["Cc1cc(NC(=O)c2cccc(S(=O)(=O)N[C@H]3CCOC3)c2)ccc1F", 25.2]
]}

###

ASSAY_INFO: AUC (0 to 24 hrs) in humanized mouse at 200 mg/kg, sc measured on day 1 post dose by LC-MS/MS analysis
Assay type: ADME, organism-based
Set-up: dose 200 mg/kg, time < 24 hr, route subcutaneous
CONDITION_SUMMARY: in vivo

{"columns": ["COMPOUND_STRUCTURE", "AUC(0-t) at 24 h"],
 "data": [
  ["Cc1cc(NC(=O)c2cccc(S(=O)(=O)N[C@H]3CCOC3)c2)ccc1F", "12000 ng·h/mL"]
]}

###

ASSAY_INFO: Half life in C57BL/6 mouse at 50 mg/kg, sc by LC-MS/MS analysis
Assay type: ADME, organism-based
CONDITION_SUMMARY: in vivo

{"columns": ["COMPOUND_STRUCTURE", "half-life [h]"],
 "data": [
  ["Cc1cc(NC(=O)c2cccc(S(=O)(=O)N[C@H]3CCOC3)c2)ccc1F", 5.3]
]}

###

ASSAY_INFO: Cytotoxicity against human HepG2 cells after 4 days by resazurin assay
Type: cell-based
Entries and their CC50 at 96 h
QUANTITY: CC50 at 96 h (µM)

{"columns": ["COMPOUND_STRUCTURE", "BOUND_SIGN", "ASSAY_VALUE"],
 "data": [
  ["CN(C)S(=O)(=O)c1cccc(C(=O)Nc2ccc(F)cc2)c1", ">", 100],
  ["CN1CCC(NS(=O)(=O)c2cccc(C(=O)Nc3ccc(F)cc3)c2)CC1", ">", 100],
  ["O=S(=O)(NC1CCCCC1)c1ccc(F)c(-c2ncc(-c3ccccc3)[nH]2)c1", "=", 19.2],
  ["CCC(CC)NS(=O)(=O)c1cccc(C(=O)Nc2ccc(F)cc2)c1", "=", 40.3],
  ["O=C(Nc1ccc(F)cc1)c1cccc(S(=O)(=O)NC2CCC2)c1", "=", 57.7],
  ["CN1CCN(S(=O)(=O)c2cccc(C(=O)Nc3ccc(F)cc3)c2)CC1", ">", 100],
  ["O=C(Nc1ccc(F)c(F)c1)c1cccc(S(=O)(=O)NC2CCCC2)c1", ">", 25],
  ["CC(=O)N1CCN(S(=O)(=O)c2cccc(C(=O)Nc3ccc(F)cc3)c2)CC1", ">", 100],
  ["CN(c1cccc(C(=O)Nc2ccc(F)cc2)c1)S(=O)(=O)C1CCCC1", "=", 43.2],
  ["CN(C(=O)c1cccc(S(=O)(=O)NC2CCCC2)c1)c1ccc(F)cc1", ">", 25]
]}

###

ASSAY_INFO: AUC (0 to infinity) in humanized mouse at 200 mg/kg, sc for 8 days measured on day 8 post last dose by LC-MS/MS analysis
Format: ADME, organism-based
Parameters: dose 200 mg/kg, route subcutaneous, time infinity
CONDITION_SUMMARY: in vivo

{"columns": ["COMPOUND_STRUCTURE", "AUC(0-inf) / µg·h/mL"],
 "data": [
  ["Cc1cc(NC(=O)c2cccc(S(=O)(=O)N[C@H]3CCOC3)c2)ccc1F", 119]
]}

###

ASSAY_INFO: Tmax in C57BL/6 mouse at 10 mg/kg, po by LC-MS/MS analysis
Assay type: ADME, organism-based
CONDITION_SUMMARY: in vivo

{"columns": ["COMPOUND_STRUCTURE", "Tmax, min"],
 "data": [
  ["Cc1cc(NC(=O)c2cccc(S(=O)(=O)N[C@H]3CCOC3)c2)ccc1F", 30]
]}

###

ASSAY_INFO: Oral bioavailability in C57BL/6 mouse at 50 mg/kg by LC-MS/MS analysis
Type: ADME, organism-based
CONDITION_SUMMARY: in vivo
QUANTITY: bioavailability (%)

{"columns": ["COMPOUND_STRUCTURE", "ASSAY_VALUE"],
 "data": [
  ["Cc1cc(NC(=O)c2cccc(S(=O)(=O)N[C@H]3CCOC3)c2)ccc1F", 66]
]}

###

ASSAY_INFO: Inhibition of sodium channel (unknown origin)
Design: species or system Homo sapiens
QUANTITY: IC50

{"columns": ["COMPOUND_STRUCTURE", "ASSAY_VALUE"],
 "data": [
  ["Cc1cc(NC(=O)c2cccc(S(=O)(=O)N[C@H]3CCOC3)c2)ccc1F", "> 10 µM"]
]}

###

SYSTEM_NAME: hERG (Homo sapiens, UniProt Q12809)
Sequence (Q12809 whole entry): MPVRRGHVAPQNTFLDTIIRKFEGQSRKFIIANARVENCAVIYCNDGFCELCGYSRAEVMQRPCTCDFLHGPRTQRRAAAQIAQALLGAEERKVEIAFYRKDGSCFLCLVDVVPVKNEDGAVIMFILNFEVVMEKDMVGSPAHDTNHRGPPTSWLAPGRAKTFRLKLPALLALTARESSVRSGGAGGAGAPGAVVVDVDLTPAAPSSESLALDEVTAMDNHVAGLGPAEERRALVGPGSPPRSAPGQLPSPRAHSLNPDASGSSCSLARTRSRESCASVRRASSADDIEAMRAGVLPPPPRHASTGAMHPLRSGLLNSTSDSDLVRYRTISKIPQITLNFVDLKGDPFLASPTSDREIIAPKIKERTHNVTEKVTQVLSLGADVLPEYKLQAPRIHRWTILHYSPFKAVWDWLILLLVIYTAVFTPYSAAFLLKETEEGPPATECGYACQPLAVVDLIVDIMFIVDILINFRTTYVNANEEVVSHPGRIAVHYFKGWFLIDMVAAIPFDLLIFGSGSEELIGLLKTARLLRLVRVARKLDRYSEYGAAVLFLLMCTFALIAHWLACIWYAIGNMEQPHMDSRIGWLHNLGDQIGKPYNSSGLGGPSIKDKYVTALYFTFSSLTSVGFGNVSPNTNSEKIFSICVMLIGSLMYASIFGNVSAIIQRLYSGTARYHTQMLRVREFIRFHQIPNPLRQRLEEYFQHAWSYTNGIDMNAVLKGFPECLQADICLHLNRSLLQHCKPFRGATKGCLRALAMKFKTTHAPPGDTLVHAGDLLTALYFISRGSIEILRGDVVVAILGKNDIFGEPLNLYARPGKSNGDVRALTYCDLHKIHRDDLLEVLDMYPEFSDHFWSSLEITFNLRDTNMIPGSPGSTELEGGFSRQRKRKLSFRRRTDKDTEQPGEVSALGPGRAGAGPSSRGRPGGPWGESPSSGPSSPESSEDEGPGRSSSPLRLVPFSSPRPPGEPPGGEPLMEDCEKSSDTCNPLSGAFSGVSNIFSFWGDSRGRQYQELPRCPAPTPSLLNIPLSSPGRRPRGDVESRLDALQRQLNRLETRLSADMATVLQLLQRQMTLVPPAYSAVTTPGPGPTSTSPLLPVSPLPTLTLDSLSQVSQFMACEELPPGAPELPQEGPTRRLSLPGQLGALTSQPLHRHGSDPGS
ASSAY_INFO: Inhibition of human ERG at 3 uM by automated patch clamp assay (reference value: 14%)
QUANTITY: inhibition at 3 µM (%)

{"columns": ["COMPOUND_STRUCTURE", "SCALE_UNIT", "ASSAY_VALUE"],
 "data": [
  ["Cc1cc(NC(=O)c2cccc(S(=O)(=O)N[C@H]3CCOC3)c2)ccc1F", "%", 31]
]}

###

Entries and their CC50 at 96 h
ASSAY_INFO: Cytotoxicity against human HepG2 cells after 4 days by resazurin assay
Format: cell-based
QUANTITY: CC50 at 96 h

{"columns": ["COMPOUND_STRUCTURE", "QUANTITY", "ASSAY_VALUE"],
 "data": [
  ["O=C(Nc1ccc(F)cc1)c1cccc(S(=O)(=O)N[C@H]2CCOC2)c1", "CC50 at 96 h", "> 100 µM"],
  ["O=C(Nc1ccc(F)cc1)c1cc(S(=O)(=O)NC2CCCCC2)ccc1F", "CC50 at 96 h", "> 50 µM"],
  ["CC(C)NS(=O)(=O)c1cccc(C(=O)Nc2ccc(F)cc2)c1", "CC50 at 96 h", "57.5 µM"],
  ["O=C(Nc1ccc2ccccc2c1)c1cc(S(=O)(=O)NC2CCCCC2)ccc1F", "CC50 at 96 h", "13 µM"],
  ["O=C(Nc1cc(F)cc(F)c1)c1cccc(S(=O)(=O)NC2CCCC2)c1", "CC50 at 96 h", "> 25 µM"],
  ["Cc1ccc(NC(=O)c2cccc(S(=O)(=O)NC3CCCC3)c2)cc1F", "CC50 at 96 h", "> 25 µM"],
  ["O=C(Nc1ccc(F)cc1)c1cccc(S(=O)(=O)N2CCCCC2)c1", "CC50 at 96 h", "70.4 µM"],
  ["CN(C1CCCC1)S(=O)(=O)c1cccc(C(=O)Nc2ccc(F)cc2)c1", "CC50 at 96 h", "23.8 µM"],
  ["O=C(Nc1ccc(F)cc1)c1cccc(S(=O)(=O)NC2COC2)c1", "CC50 at 96 h", "> 100 µM"],
  ["O=C(Nc1ccc(F)cc1)c1cc(S(=O)(=O)NC2CCCC2)ccc1F", "CC50 at 96 h", "> 25 µM"],
  ["CC(=O)N1CCC(NS(=O)(=O)c2cccc(C(=O)Nc3ccc(F)cc3)c2)CC1", "CC50 at 96 h", "> 100 µM"],
  ["O=C(Nc1ccc(F)cc1)c1cccc(S(=O)(=O)N2CCCC2)c1", "CC50 at 96 h", "96.9 µM"],
  ["CC[C@H](C)NS(=O)(=O)c1cccc(C(=O)Nc2ccc(F)cc2)c1", "CC50 at 96 h", "39.6 µM"],
  ["Cc1cc(NC(=O)c2cccc(S(=O)(=O)NC3CCCC3)c2)ccc1F", "CC50 at 96 h", "48.2 µM"],
  ["O=C(Nc1cccc(S(=O)(=O)NC2CCCCC2)c1)c1ccccc1", "CC50 at 96 h", "> 25 µM"]
]}
